- testedOn: UniProt:Q12884
- Sequence (Q12884 whole entry): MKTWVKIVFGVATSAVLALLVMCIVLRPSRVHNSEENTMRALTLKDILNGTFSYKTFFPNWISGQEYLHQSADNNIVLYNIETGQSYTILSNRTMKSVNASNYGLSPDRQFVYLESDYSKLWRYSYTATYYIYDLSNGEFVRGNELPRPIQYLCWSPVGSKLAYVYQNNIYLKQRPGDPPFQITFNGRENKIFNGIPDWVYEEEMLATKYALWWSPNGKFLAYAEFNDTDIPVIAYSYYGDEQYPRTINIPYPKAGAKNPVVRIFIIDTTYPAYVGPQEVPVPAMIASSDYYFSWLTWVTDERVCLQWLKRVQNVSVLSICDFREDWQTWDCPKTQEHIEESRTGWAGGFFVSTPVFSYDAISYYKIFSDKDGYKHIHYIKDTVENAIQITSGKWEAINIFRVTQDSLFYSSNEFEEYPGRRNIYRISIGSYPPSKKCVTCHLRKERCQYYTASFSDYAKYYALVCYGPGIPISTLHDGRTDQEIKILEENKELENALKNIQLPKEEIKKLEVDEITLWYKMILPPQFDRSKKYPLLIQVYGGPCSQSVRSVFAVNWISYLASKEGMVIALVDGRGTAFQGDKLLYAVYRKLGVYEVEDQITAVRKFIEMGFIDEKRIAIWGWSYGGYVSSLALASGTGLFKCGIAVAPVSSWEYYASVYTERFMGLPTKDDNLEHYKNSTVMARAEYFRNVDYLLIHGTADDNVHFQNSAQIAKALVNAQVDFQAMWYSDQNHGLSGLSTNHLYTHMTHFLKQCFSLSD
pIC50: −log10 of the molar value.
testReadout: pIC50

Inquiry: Give its pIC50 value. Item: N#C[C@@H]1CCCN1C(=O)[C@@H]1CCCN1C(=O)CCCc1ccccc1
Reply text: < 7.00

----------
- protocolText: Inhibition of POP (unknown origin)
- Set-up: species or system Homo sapiens
testReadout: IC50 (nM)
Numbers only, in nM.

compound	testReadout	reportedResult
CC(C)[C@H](N)C(=O)N1CCC[C@H]1B(O)O [TALABOSTAT]	IC50	980

Parameter requested: IC50. Apply to each item below.
1. N#C[C@@H]1CS[C@H]2C[C@@H](NC(=O)OCc3ccccc3)CN12
2. N#C[C@@H]1CCCN1C(=O)[C@@H]1CCCN1C(=O)CCCc1ccccc1
3. O=C(CO)[C@@H]1CCCN1C(=O)[C@@H]1CCCN1C(=O)NCc1ccccc1

Reply text:
200
6
0.83
